# Target Or Test System: Nb6E-biotin (biotin at the C terminus (sortagging))
# Sequence (VHH, as listed by the source): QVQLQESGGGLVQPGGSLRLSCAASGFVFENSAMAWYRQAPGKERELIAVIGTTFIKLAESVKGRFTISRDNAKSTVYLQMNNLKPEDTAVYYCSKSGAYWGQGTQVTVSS
# Protocol Summary: SPR
Listing of recorded pKd by entry.
Please treat pKd as minus the base-10 logarithm of the molar concentration.

{"Binder": "QADQEAWELARQIS [6E-W7]", "Value": 7.75}
{"Binder": "QADWEAKELARQIS [6E-W4]", "Value": 7.82}

Alright, here's another binder for you.
Short answer for QADQEAKWLARQIS [6E-W8] : pKd was 8.04

Data provenance is paper PMC12212259.
